Measured values drawn from patent US7649012B2 for this set.

Test system: MCF-7 human breast cancer cells
Assay: XTT cytotoxicity assay
Assay type: cell-based
Settings: MCF7, MCF-7, 72 hours, some cells marked (M)
Assign labels as follows, please: criterion met for IC50 below 20 µg/mL; criterion not met for IC50 equal to or exceeding 20 µg/mL.

Use these answered entries as a reference point.
> print(dat)
                                   molecule        class.label
1  CCCCCCCC[C@@]1(C)SC(=O)C=C1OCC(=O)OCC (racemic)  criterion not met
2  CCCCCCCCC1(C)SC(=O)C(C)=C1O (stereo not drawn)  criterion not met
3  CCCCCCCCC1(C)SC(=O)C=C1O (stereo not drawn)      criterion met

Data request: Here's an entry: CCCCCCCCC1(C)SC(=O)C=C1OCC(=O)NNCc1ccc(Cl)cc1 (stereo not drawn) . Is its IC50 below 20 µg/mL?
Data returned: criterion met

Data request: Here's an entry: C#CCOC1CC(=O)S[C@]1(C)CCCCCC (mixture of isomers) . Is its IC50 below 20 µg/mL?
Data returned: criterion met

Data request: Here's an entry: CCCCCCCCC1(C)SC(=O)C=C1OC (stereo not drawn) . Is its IC50 below 20 µg/mL?
Data returned: criterion met

###

Tested on: OV
Assay: XTT cytotoxicity assay, cells marked (OV)
Format: cell-based
REPORTED METRIC: IC50 (µg/mL)
Give bare numbers, in µg/mL.

> print(dat)
                                   compound  reported.metric  quantitative.readout
1  CCCCCCCCC1(C)SC(=O)C=C1OCC(=O)NNCc1ccc(Cl)cc1 (stereo not shown)             IC50                    16
2  CCCCCCCCC1(C)SC(=O)C=C1OCC(=O)NNC(C)=O (stereo not shown)             IC50                    16
3  CCCCCCCCC1(C)SC(=O)C=C1OCc1ccccc1 (stereo not shown)             IC50                  27.8

The value of IC50 measured for the compound CCCCCCCCC1(C)SC(=O)C=C1OCC(=O)NNC(=O)c1ccco1 (stereo not shown) turned out to be 21.3

###

Task for the reader: assign each of the following molecules its reported IC50.
Biological target: purified human FAS (Homo sapiens, UniProt P49327)
Construct: Human FAS was purified from cultured ZR-75-1 human breast cancer cells; endogenous in cells; host or cells: ZR-75-1 human breast cancer cells (ATCC); endogenous enzyme purified by PEG precipitation and Mono Q anion exchange
Sequence (P49327 whole entry): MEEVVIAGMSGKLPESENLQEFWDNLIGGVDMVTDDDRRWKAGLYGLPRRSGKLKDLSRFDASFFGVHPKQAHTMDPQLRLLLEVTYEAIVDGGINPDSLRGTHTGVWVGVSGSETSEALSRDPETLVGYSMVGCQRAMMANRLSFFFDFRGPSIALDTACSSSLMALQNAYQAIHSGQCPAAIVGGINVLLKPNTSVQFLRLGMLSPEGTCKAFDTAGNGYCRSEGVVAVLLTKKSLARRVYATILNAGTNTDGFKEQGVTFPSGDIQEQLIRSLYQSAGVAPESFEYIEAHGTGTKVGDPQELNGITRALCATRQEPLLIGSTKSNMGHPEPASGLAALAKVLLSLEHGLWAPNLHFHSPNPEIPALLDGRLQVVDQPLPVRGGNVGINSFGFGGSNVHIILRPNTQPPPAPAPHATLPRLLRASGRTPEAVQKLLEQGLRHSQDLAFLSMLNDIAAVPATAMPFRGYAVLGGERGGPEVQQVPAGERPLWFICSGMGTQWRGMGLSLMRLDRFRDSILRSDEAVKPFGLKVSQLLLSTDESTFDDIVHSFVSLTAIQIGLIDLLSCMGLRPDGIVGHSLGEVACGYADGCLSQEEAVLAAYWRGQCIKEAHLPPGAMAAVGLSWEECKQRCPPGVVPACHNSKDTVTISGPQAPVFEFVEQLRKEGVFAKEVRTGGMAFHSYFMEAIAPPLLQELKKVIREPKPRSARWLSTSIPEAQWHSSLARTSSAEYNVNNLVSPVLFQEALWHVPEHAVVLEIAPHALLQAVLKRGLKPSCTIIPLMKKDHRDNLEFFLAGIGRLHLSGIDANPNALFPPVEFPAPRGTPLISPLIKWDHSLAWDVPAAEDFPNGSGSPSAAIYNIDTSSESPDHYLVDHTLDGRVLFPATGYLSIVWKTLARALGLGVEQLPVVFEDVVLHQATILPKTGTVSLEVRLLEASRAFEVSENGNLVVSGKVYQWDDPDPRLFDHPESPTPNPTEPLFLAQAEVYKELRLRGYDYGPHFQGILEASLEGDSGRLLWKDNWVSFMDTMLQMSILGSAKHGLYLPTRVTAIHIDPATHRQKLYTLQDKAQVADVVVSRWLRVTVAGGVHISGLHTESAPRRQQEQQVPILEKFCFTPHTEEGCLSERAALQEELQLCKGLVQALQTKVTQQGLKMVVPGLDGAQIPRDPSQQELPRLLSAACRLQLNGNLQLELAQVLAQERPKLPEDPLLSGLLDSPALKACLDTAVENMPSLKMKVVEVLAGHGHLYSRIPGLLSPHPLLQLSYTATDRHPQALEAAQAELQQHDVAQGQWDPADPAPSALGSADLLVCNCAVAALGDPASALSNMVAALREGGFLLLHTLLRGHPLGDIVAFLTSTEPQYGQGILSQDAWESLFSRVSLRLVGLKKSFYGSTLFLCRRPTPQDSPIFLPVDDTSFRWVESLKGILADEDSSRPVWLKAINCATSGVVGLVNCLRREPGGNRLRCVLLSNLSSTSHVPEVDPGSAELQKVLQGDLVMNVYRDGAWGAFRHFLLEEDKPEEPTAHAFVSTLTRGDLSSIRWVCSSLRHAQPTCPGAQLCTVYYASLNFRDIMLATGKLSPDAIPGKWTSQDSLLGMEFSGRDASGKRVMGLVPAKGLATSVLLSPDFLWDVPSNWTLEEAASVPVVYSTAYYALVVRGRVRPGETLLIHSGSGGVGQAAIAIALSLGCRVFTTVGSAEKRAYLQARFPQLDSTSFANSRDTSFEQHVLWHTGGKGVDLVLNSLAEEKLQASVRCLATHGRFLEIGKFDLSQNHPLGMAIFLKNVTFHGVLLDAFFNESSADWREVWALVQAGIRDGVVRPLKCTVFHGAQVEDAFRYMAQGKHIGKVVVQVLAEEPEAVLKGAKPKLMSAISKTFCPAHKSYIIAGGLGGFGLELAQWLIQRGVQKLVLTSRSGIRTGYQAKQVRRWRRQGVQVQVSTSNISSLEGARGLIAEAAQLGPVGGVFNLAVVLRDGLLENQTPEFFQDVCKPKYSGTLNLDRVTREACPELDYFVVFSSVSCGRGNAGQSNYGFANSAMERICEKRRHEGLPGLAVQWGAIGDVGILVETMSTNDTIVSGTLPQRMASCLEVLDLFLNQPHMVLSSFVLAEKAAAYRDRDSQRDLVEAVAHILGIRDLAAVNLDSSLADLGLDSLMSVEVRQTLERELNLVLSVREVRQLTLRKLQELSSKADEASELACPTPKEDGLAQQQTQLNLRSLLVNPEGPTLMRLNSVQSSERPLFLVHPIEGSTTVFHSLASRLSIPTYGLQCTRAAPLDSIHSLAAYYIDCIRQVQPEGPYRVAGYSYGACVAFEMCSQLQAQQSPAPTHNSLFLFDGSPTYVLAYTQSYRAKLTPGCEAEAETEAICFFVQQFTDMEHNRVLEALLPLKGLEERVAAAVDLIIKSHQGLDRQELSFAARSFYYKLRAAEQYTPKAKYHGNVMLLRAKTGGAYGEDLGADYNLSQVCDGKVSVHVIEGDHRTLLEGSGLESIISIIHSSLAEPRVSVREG
Assay: Measurement of FAS enzymatic activity (NADPH oxidation), IC50
Type: biochemical
Details: unit inferred

> print(dat)
                                   molecule   result
1  CCCCCCCCC1(C)SC(=O)C=C1OC(=O)OCC (centres unmarked)  9.54 µM

Now let's try a different one.
The value of IC50 measured for the molecule CCCCCCCC[C@@]1(C)SC(=O)C(C(=O)C(F)(F)F)=C1O (racemic) turned out to be 121 µM

###

System: MCF-7 human breast cancer cells
Assay: XTT cytotoxicity assay
Assay type: cell-based
Settings: MCF7, MCF-7, 72 hours, some cells marked (M)
REPORTED METRIC: IC50 (µg/mL)
One number for each entry, in µg/mL.

Examples with answers:
> print(dat)
                                   molecule  quantitative.readout
1  CCCCCCCC[C@@]1(C)SC(=O)C(C(C)=O)=C1O (racemic)                   125
2  CCCCCCCC[C@@]1(C)SC(=O)C=C1OC(=O)OC (racemic)                  21.6
3   C=CCOC1=CC(=O)S[C@]1(C)CCCCCC (racemic)                     9
4  CCCCCCCCC1(C)SC(=O)C=C1OCC(=O)NNC(C)=O (stereo not shown)                  25.3
5  COC1=CC(=O)SC1(C)Cc1ccccc1 (stereo not shown)                  61.3

Provide the reported IC50 of each entry below, same order.
1. CCCCCC[C@@]1(C)SC(=O)C=C1OCC(=O)OCC (racemic)
2. CCCCCC[C@@]1(C)SC(=O)C=C1OCC(=O)NCCCBr (racemic)
3. C=CCOC1=CC(=O)S[C@]1(C)CCCCCCCC (racemic)
4. CCCCCCCCC1(C)SC(=O)C=C1OC(=O)OCC (stereo not shown)
5. C=CCOC(=O)OC1=CC(=O)S[C@]1(C)CCCCCCCC (racemic)
6. CCCCCCCC[C@@]1(C)SC(=O)C(C(=O)C(F)(F)F)=C1O (racemic)

Data returned:
[39.6, 21.2, 14.5, 15.1, 34.9, 18.4]

Provide the reported IC50 of each entry below, same order.
1. CCCCCCCCC1(C)SC(=O)C(C(C)O)=C1O (stereo not shown)
2. CCCCCCCC[C@@]1(C)SC(=O)C=C1OC(=O)CC (racemic)
3. CCCCCCCC[C@@]1(C)SC(=O)C=C1OCC(=O)O
4. CCCCCCCC[C@@]1(C)SC(=O)C=C1OC(=O)NC(C)C (racemic)
5. CCCC/C=C/C=C/C1(C)SC(=O)C=C1O (stereo not shown)
6. C=CCC1=C(OC)C(C)(CCCCCCCC)SC1=O (stereo not shown)
7. CCCCCCCCC1(C)SC(=O)C=C1OCc1ccccc1 (stereo not shown)

Data returned:
23.9
26.8
50.3
45.7
59.4
55
29.2

###

System: MCF-7 human breast cancer cells
Test: XTT cytotoxicity assay
Assay type: cell-based
Settings: MCF7, MCF-7, 72 hours, some cells marked (M)
Procedure: The XTT assay is a non-radioactive alternative for the [^51 Cr] release cytotoxicity assay. XTT is a tetrazolium salt that is reduced to a formazan dye only by metabolically active, viable cells. The reduction of XTT is measured spectrophotometrically as OD490-OD650. […]
Assign labels as follows, please: fulfilled for IC50 below 20 µg/mL; not fulfilled for IC50 equal to or exceeding 20 µg/mL.

> print(dat)
                                   compound    class.label
1  C=CCC1(C)C(=O)S[C@](C)(CCCCCCCC)C1=O (mixture of isomers)  not fulfilled

Data request: Here's an entry: CCCCCCCCC1(C)SC(=O)C(C)=C1OC (stereo not drawn) . Is its IC50 below 20 µg/mL?
Data returned: fulfilled

Data request: Here's an entry: C=CCNC(=O)COC1=CC(=O)S[C@]1(C)CCCCCCCCCC (racemic) . Is its IC50 below 20 µg/mL?
Data returned: fulfilled

Data request: Here's an entry: CCCCCCCCC1(C)SC(=O)C(C(C)O)=C1OC (stereo not drawn) . Is its IC50 below 20 µg/mL?
Data returned: not fulfilled

Data request: Here's an entry: CCCCCCCC[C@@]1(C)SC(=O)C=C1OCCCCCl (racemic) . Is its IC50 below 20 µg/mL?
Data returned: not fulfilled

Data request: Here's an entry: CCCCCC[C@@]1(C)SC(=O)C=C1OCCCCCl (racemic) . Is its IC50 below 20 µg/mL?
Data returned: not fulfilled

Data request: Here's an entry: C/C=C/C(C)=C/C1(C)SC(=O)C=C1O (stereo not drawn) . Is its IC50 below 20 µg/mL?
Data returned: not fulfilled

###

Biological target: purified human FAS (Homo sapiens)
Construct: Human FAS was purified from cultured ZR-75-1 human breast cancer cells; endogenous in cells; host or cells: ZR-75-1 human breast cancer cells (ATCC); endogenous enzyme purified by PEG precipitation and Mono Q anion exchange
Experiment: Measurement of FAS enzymatic activity (NADPH oxidation), IC50
Format: biochemical
REPORTED METRIC: log10 of IC50 (log10 of the value in µM)
Answers are given as log10 of IC50 in µM.

> print(dat)
                                   compound                    measured.target  reported.metric  quantitative.readout
1  CC/C=C/C=C/C1(C)SC(=O)C=C1O (centres unmarked)  purified human FAS (Homo sapiens)    log10 of IC50                  2.38
2  CCCCCCCC[C@@]1(C)SC(=O)C=C1OC(=O)NC(C)C (racemic)  purified human FAS (Homo sapiens)    log10 of IC50                  2.39
3  C=C/C(C)=C/C1(C)SC(=O)C=C1O (centres unmarked)  purified human FAS (Homo sapiens)    log10 of IC50                  1.65
4  C=CCOC(=O)OC1=CC(=O)S[C@]1(C)CCCCCCCC (racemic)  purified human FAS (Homo sapiens)    log10 of IC50                  1.23
5  CCCC/C=C/C=C/C1(C)SC(=O)C=C1O (centres unmarked)  purified human FAS (Homo sapiens)    log10 of IC50                  1.56

Provide the reported log10 of IC50 of each entry below, same order.
1. CCCCCCCCC1(C)SC(=O)C(C(C)O)=C1OC (centres unmarked)
2. CCCCCCCCC1(C)SC(=O)C=C1O (centres unmarked)

Data returned:
1. 0.97
2. 1.27

Provide the reported log10 of IC50 of each entry below, same order.
1. CCCCCCCC[C@@]1(C)SC(=O)C=C1OC(=O)OC (racemic)
2. CCCCCCCCC1(C)SC(=O)C(C)=C1O (centres unmarked)
3. C/C=C/C(C)=C/C1(C)SC(=O)C=C1O (centres unmarked)
4. CCCCCCCCC1(C)SC(=O)C(C(C)O)=C1O (centres unmarked)

Data returned:
[0.78, 2.28, 2.53, 1.06]
